experimental.target: feline FcRn complex (FcRn-α subunit and β-microglobulin) (feline)
protocol.description: SPR (Biacore), FcRn on SA chip, pH 7.4
observed.property: pKd
// pKd is dimensionless: -log10 of concentration (M)

Q: Endpoint output: pKd of feline IgG1a mutant ID No. 344: S252Y, S428M, S434F, D401R (antibody, part only; not given: Variable domains, not shown: another chain or arm of the molecule) constant: ASTTAPSVFPLAPSCGTTSGATVALACLVLGYFPEPVTVSWNSGALTSGVHTFPAVLQASGLYSLSSMVTVPSSRWLSDTFTCNVAHPPSNTKVDKTVRKTDHPPGPKPCDCPKCPPPEMLGGPSIFIFPPKPKDTLYISRTPEVTCLVVDLGPDDSDVQITWFVDNTQVYTAKTSPREEQFNSTYRVVSVLPILHQDWLKGKEFKCKVNSKSLPSPIERTISKAKGQPHEPQVYVLPPAQEELSRNKVSVTCLIKSFHPPDIAVEWEITGQPEPENNYRTTPPQLDSRGTYFVYSKLSVDRSHWQRGNTYTCSVMHEALHFHHTQKSLTQSPGK . Value?
Ans: 7.96
